MIC for assorted compounds
- Tested on: Cryptococcus neoformans
- Assay Procedure: Minimum concentration required to inhibit the growth of Cryptococcus neoformans TIMM1855 was determined
- Format: functional

Below are worked cases with known answers.
{"columns": ["Compound", "MIC"],
 "data": [
  ["CC(C)C1=CC2CC3(C=O)[C@@H]4CC[C@@H](C)[C@H]4CC2(CO[C@@H]2C[C@H](C)N(Cc4ccccc4)C2)C13C(=O)O (some centres not stated)", "> 16 µg/mL"],
  ["COc1ccc(CN2C[C@H](OCC34C[C@@H]5[C@H](C)CC[C@H]5C5(C=O)CC3C=C(C(C)C)C45C(=O)O)C[C@@H]2C)cc1 (some centres not stated)", "> 16 µg/mL"],
  ["OC(Cn1cncn1)(Cn1cncn1)c1ccc(F)cc1F [FLUCONAZOLE]", "> 4 µg/mL"]
]}

Which MIC is listed for C/C=C/C=C\C(=O)O[C@H]1[C@H](O)[C@H](OCC23C[C@@H]4[C@H](C)CC[C@H]4C4(C=O)CC2C=C(C(C)C)C34C(=O)O)O[C@H](C)[C@H]1OC (some centres not stated) ? 0.25 µg/mL

Which MIC is listed for CC(C)C1=CC2CC3(C=O)[C@@H]4CC[C@@H](C)[C@H]4CC2(CS[C@@H]2C[C@H](C)N(Cc4ccccc4)C2)C13C(=O)O (some centres not stated) ? > 16 µg/mL

Which MIC is listed for C=C(C)CN1C[C@H](OCC23C[C@@H]4[C@H](C)CC[C@H]4C4(C=O)CC2C=C(C(C)C)C34C(=O)O)O[C@H](C)[C@@H](OC)C1 (some centres not stated) ? 0.25 µg/mL

Which MIC is listed for CC(C)C1=CC2CC3(C=O)[C@@H]4CC[C@@H](C)[C@H]4CC2(CO[C@@H]2C[C@H](C)N(Cc4ccc5c(c4)OCO5)C2)C13C(=O)O (some centres not stated) ? > 16 µg/mL

Every entry's value here was drawn from ChEMBL document CHEMBL1135349.
